src = ChEMBL document CHEMBL1143516

TESTED_SYSTEM: Histone deacetylase
TEST: In vitro inhibitory concentration against Histone deacetylase; Control value 0.06 uM
Assay type: protein assay, Homo sapiens
MEASUREMENT_TYPE: IC50 (µM)

Consider the worked cases shown below.
Request: Kindly state the measured IC50 obtained for O=C(NCCS)C(=O)Nc1ccccc1 with Histone deacetylase.
Response: 2.8

Request: Kindly state the measured IC50 obtained for O=C(CCCC(=O)Nc1ccccc1)NCCS with Histone deacetylase.
Response: 3.1

Request: Kindly state the measured IC50 obtained for O=C(CCCCCCCC(=O)Nc1ccccc1)NCCS with Histone deacetylase.
Response: 10.2

[I] O=C(CCCCCCC(=O)Nc1ccccc1)NCCS
[II] O=C(CCCCC(=O)Nc1ccccc1)NCCS
Request: For this pair, I and II , which shows a numerically higher IC50? Label of pick, please.
Response: I

[1] O=C(CS)NCCC(=O)Nc1cnc2ccccc2c1
[2] O=C(CS)NCCCC(=O)Nc1cnc2ccccc2c1
Request: For this pair, 1 and 2 , which shows a numerically higher IC50? Label of pick, please.
Response: 1
(1: 39.5 µM, 2: 0.66 µM)
